All values here come from patent US20200157194A1.

Target: T1, recombinant human GREM1 (hGREM1-His; C-terminal 10His tagged, R&D, #5190-GR) (human, UniProt O60565 25-184)
T1 construct: range 25-184; also called recombinant human GREM1 with a C-terminal decahistidine tag
T1 sequence: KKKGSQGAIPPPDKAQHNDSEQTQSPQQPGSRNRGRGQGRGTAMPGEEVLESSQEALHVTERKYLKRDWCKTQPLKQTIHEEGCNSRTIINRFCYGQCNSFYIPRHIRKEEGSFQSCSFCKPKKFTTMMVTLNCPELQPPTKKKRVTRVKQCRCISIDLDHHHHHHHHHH
Experiment: BLI Octet, mAb captured, 100 nM GREM1;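 also: octet Red96 biolayer interferometry at 25 °C in pH 7.4 HEPES saline buffer, antibodies held on anti-human IgG Fc capture biosensors, then exposed to GREM1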
Recorded metric: Binding Signal with 300 sec Association (nm)
Just the number please, in nm, no unit attached.

So for H4H2780N (antibody, human IgG4, V domains shown, H4H prefix = human IgG4 Fc) VH: EVQLVESGGGLVKPGGSLRLSCAASGFTFSTYSMNWVRQAPGKGLEWVSSISSGSSYIYYTDSVKGRFTISRDNAKNSLYLQMNSLRAEDTAVYYCARFGSYYYFGFDVWGQGTTVTVSS VL: DIQMTQSPSSLSASVGDRVTITCRASQGISNYLAWYQQKPGKVPKLLIFSASTLQSGVPSRFSGSGSGPDFTLTVSSLQPEDVATYYCQKYNSAPFAFGPGTKVDIK , the logged Binding Signal with 300 sec Association turned out to be 0.58
